# Test System: human glucagon receptor (human, UniProt P47871 26-477)
# Protocol: cell-based or functional assay
Starred links: 1 amine or outer side, 2 acyl side, 3 side chain; linkers in the order of their positions; H or OH if unused. Non-standard residues stand in square brackets, D forms with d. No end group written: not given here. *: point of attachment. NMe2F‑APPA = N-methyl-2-amino-5-(2-fluorophenyl)pentanoic acid, CN([C@@H](CCCc1ccccc1F)C(=O)[*:2])[*:1]; AMCB = 2-amino-5-(4-chloro-2-methylphenyl)pentanoic acid, Cc1cc(Cl)ccc1CCC[C@H](N[*:1])C(=O)[*:2]; Bip(2'-Et-4'-OMe) = CCc1cc(OC)ccc1-c1ccc(C[C@H](N)C(=O)O)cc1; Leu(5,5,5,5',5',5'-F6) = N[C@@H](CC(C(F)(F)F)C(F)(F)F)C(=O)O; 2F‑APPA = 2-amino-5-(2-fluorophenyl)pentanoic acid; αMePhe(2-F) = C[C@](N)(Cc1ccccc1F)C(=O)O; NMeBip(OMe) = N-methylated Bip(OMe); hhPhe = N[C@@H](CCCc1ccccc1)C(=O)O; aThr = C[C@H](O)[C@H](N)C(=O)O; NMeAPPA = not defined here; Ac5c = NC1(C(=O)O)CCCC1; CNB = not defined here; Aib = CC(C)(N)C(=O)O; Moc = COC(=O)*
Measured Metric: inhibition of cAMP production, 1 nM (pmol/ml/µg prt)

Take a look at these entries with their results.
Name the reported inhibition of cAMP production, 1 nM value associated with the binder H[Ac5c]QGTFTSD[Bip(2'-Et-4'-OMe)][AMCB] [Seq. ID. No. 28: H-(APP)-QGTFTSD-Bip(OMe)-(AMCB)]
14

Would you kindly share the measured inhibition of cAMP production, 1 nM for H[Aib][Leu(5,5,5,5',5',5'-F6)]G[aThr][αMePhe(2-F)][aThr]SD[Bip(2'-Et-4'-OMe)][2F‑APPA] (also: thioamide (C═S) bond Z10-Z11) [Seq. ID. No. 218: H-Aib-(Hfl)-G-T(allo)-(α-Me-2F-Phe)-T(allo)-SD-Bip(OMe)-(C═S)-(2F-APPA)] ?
9

Could you share which inhibition of cAMP production, 1 nM value was measured for Moc-H[Aib]QG[aThr][αMePhe(2-F)][aThr]SD[Bip(2'-Et-4'-OMe)][2F‑APPA] (also: reduced (CH2) bonds between 9-10 and 10-11) [Seq. ID. No. 200: CH3OCO-H-Aib-QG-T(allo)-(α-Me-2F-Phe)-T(allo)-SD-(CH2)-Bip(OMe)-(CH2)-(2F-APPA)] ?
10

# inhibition of cAMP production, 1 nM lookup, item H[Aib][CNB]GTFTSD[Bip(2'-Et-4'-OMe)][hhPhe] (reading uncertain) [Seq. ID. No. 29: H-Aib-(CNB)-GTFTSD-Bip(OMe)-(APPA)]
20

Give the measured inhibition of cAMP production, 1 nM of H[Aib][CNB]G[aThr][αMePhe(2-F)][aThr]SD[Bip(2'-Et-4'-OMe)][2F‑APPA] (reading uncertain; also: reduced (CH2) bond between 10 and 11) [Seq. ID. No. 192: H-Aib-(CNB)-G-T(allo)-(α-Me-2F-Phe)-T(allo)-SD-Bip(OMe)-(CH2)-(2F-APPA)] .
4

P: H[Aib][CNB]G[aThr][αMePhe(2-F)][aThr]SD[NMeBip(OMe)][NMe2F‑APPA] (reading uncertain) [Seq. ID. No. 144: H-Aib-(CNB)-G-T(allo)-(α-Me-2F-Phe)-T(allo)-SD-((NMe)Bip(OMe))-((NMe)(2F-APPA))]
Q: H[Aib][CNB]G[aThr][αMePhe(2-F)][aThr]SD[Bip(2'-Et-4'-OMe)][2F‑APPA] (reading uncertain) [Seq. ID. No. 116: H-Aib-(CNB)-G-T(allo)-(α-Me-2F-Phe)-T(allo)-SD-Bip(OMe)-(2F-APPA)]
R: H[Aib]QGT[αMePhe(2-F)]TSD[Bip(2'-Et-4'-OMe)][AMCB] [Seq. ID. No. 40: H-Aib-QGT-(α-Me-2F-Phe)-TSD-Bip(OMe)-(AMCB)]
S: Ac-H[Aib][CNB]GT[αMePhe(2-F)]TSD[Bip(2'-Et-4'-OMe)][2F‑APPA] (reading uncertain) [Seq. ID. No. 207: CH3CO-H-Aib-(CNB)-GT-(α-Me-2F-Phe)-TSD-Bip(OMe)-(2F-APPA)]
T: H[Aib][CNB]G[aThr][αMePhe(2-F)][aThr]SD[NMeBip(OMe)][NMeAPPA] (reading uncertain) [Seq. ID. No. 142: H-Aib-(CNB)-G-T(allo)-(α-Me-2F-Phe)-T(allo)-SD-((NMe)Bip(OMe))-((NMe)(APPA))]
List the 5 entries from lowest inhibition of cAMP production, 1 nM to highest inhibition of cAMP production, 1 nM value. I'd appreciate it if you listed the labels in the requested order.
S, Q, P, T, R
